Data credit: patent US20100119506A1

- EXPERIMENTAL_SYSTEM: T1, Human PAR-2 on cells (human, UniProt P55085 26-397)
- T1 construct: also called HEK-PAR-2 (#3); human PAR-2 transfected HEK293 cells
- T1 sequence: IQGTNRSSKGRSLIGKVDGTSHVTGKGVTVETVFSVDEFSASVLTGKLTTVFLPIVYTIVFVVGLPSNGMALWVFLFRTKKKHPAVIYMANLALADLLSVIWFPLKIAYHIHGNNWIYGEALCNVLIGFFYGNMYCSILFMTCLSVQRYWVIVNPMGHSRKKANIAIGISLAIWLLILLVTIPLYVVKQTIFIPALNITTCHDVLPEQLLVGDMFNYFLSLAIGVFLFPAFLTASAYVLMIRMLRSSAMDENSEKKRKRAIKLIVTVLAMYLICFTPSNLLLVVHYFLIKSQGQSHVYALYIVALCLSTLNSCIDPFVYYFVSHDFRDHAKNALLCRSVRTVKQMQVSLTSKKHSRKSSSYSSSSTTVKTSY
- MEASUREMENT_PROTOCOL: cell binding, Fab against IgG4p of the same clone
Quick rule for you: Ratio of EC50 Fab / EC50 IgG at 5 or higher means criterion met, lower means criterion not met.

# check: Ratio of EC50 Fab / EC50 IgG of Ab4997 Fab (Fab, V domains shown, Fab) VH: QVELVESGGGLVQPGGSLRLSCAASGFTFSSYAMNWVRQAPGKGLEWVSAISYNGKLKGYADSVKGRFTISRDNSKNTLYLQMNSLRAEDTAVYYCARIQNDPMDVWGQGTLVTVSS VL: DIELTQPPSVSVAPGQTARISCSGDNLGKKYVQWYQQKPGQAPVLVIYDDSNRPSGIPERFSGSNSGNTATLTISGTQAEDEADYYCSSWDVGSDGWVFGGGTKLTVLG is greater than or equal to 5
criterion met

Now the binder Ab4994 Fab (Fab, V domains shown, Fab) VH: QVELVESGGGLVQPGGSLRLSCAASGFTFSSYAMNWVRQAPGKGLEWVSAISYSGHLTGYADSVKGRFTISRDNSKNTLYLQMNSLRAEDTAVYYCARIQNDPMDVWGQGTLVTVSS VL: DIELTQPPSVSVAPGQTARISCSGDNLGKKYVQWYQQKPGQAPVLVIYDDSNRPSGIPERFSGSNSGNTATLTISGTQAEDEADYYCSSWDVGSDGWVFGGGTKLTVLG
criterion not met

And for Ab5003 Fab (Fab, V domains shown, Fab) VH: QVELVESGGGLVQPGGSLRLSCAASGFTFSSYAMNWVRQAPGKGLEWVSAISYKGHLTGYADSVKGRFTISRDNSKNTLYLQMNSLRAEDTAVYYCARIQNDPMDVWGQGTLVTVSS VL: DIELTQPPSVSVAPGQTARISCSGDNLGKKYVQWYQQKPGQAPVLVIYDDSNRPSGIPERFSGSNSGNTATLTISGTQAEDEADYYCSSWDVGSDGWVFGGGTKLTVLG ?
criterion met

Ab4999 Fab (Fab, V domains shown, Fab) VH: QVELVESGGGLVQPGGSLRLSCAASGFTFSSYAMNWVRQAPGKGLEWVSTISYSSSATSYADSVKGRFTISRDNSKNTLYLQMNSLRAEDTAVYYCARIQNDPMDVWGQGTLVTVSS VL: DIELTQPPSVSVAPGQTARISCSGDNLGKKYVQWYQQKPGQAPVLVIYDDSNRPSGIPERFSGSNSGNTATLTISGTQAEDEADYYCQTWDYSSIRDETNVFGGGTKLTVLG , same question.
criterion not met

# repeat for Ab5007 Fab (Fab, V domains shown, Fab) VH: QVELVESGGGLVQPGGSLRLSCAASGFTFSSYAMNWVRQAPGKGLEWVSAISFSGHLTGYADSVKGRFTISRDNSKNTLYLQMNSLRAEDTAVYYCARIQNDPMDVWGQGTLVTVSS VL: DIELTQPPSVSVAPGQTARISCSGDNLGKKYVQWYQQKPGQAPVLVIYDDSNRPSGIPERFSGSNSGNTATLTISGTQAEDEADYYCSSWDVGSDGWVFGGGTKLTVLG
criterion met
